# Tested on: SR leukemia
# experimentSummary: NCI tumour cell line growth inhibition, 48 h
quantityName: TGI

Before answering, review these 5 worked examples.
[in] Param item = O=c1nc2sc3ccc4ccccc4c3n2nc1-c1ccccc1 ; retrieve measured TGI.
[out] > 100 µM

[in] Quick one: TGI for CN(C)C=C1C(=O)N(C)C(=O)N(C)C1=O ?
[out] > 100 µM

[in] // query TGI value for entry O=c1[nH]c(=O)n(C2OC(CO)C(N(O)Cc3ccc(F)cc3)C2O)cc1Br (stereo unspecified)
[out] > 100 µM

[in] May I ask what TGI has been recorded for COC(=O)C1=C(C)N2CCOC2(C)C(C(=O)OC)C1c1ccc[nH]1 (stereo unspecified) ?
[out] > 100 µM

[in] TGI for COc1c(CC(=O)c2ccccc2)c2ccccc2n1C(C)=O ?
[out] > 100 µM

Parameter requested: TGI. Apply to each item below.
1. Cc1nc(-c2nc(C)c(C(=O)/C=C/c3ccc(N(C)C)cc3)s2)sc1C(=O)/C=C/c1ccc(N(C)C)cc1
2. COc1cc(/C=C/C(=O)c2cc(OC)c(OC)c(OC)c2)ccc1Oc1nc2c(c(=O)n(C)c(=O)n2C)n1C
3. C[C@H](CCC(=O)NN)[C@H]1CC[C@H]2[C@@H]3CC[C@@H]4C[C@H](O)CC[C@]4(C)[C@H]3CC[C@]12C
4. O=c1nc(Oc2c(F)c(F)c(F)c(F)c2F)ccn1C1OC(CO)C(O)C1O (stereo unspecified)

[out]
1: > 100 µM; 2: 4.89 µM; 3: 62.2 µM; 4: > 100 µM

// each listed compound needs a value for TGI
1. CCOC(=O)C(=O)/C=C(\C)Nc1c(NC2OCC(OC(C)=O)C(OC(C)=O)C2OC(C)=O)nc(SC)[nH]c1=O (stereo unspecified)
2. Cc1ccc2nc(C=Nc3ccccc3Cl)cc(C)c2c1
3. Cn1cc(C2=C(Sc3ccccc3)C(=O)NC2=O)c2ccccc21
4. C/C(=N\NC(=S)NCCNC(=S)N/N=C(\C)c1ccccn1)c1ccccn1

[out]
1: > 100 µM; 2: 26.6 µM; 3: > 25 µM; 4: 2.53 µM
